# tgt: T1, CD32B (FcγRII-B) (UniProt P31994 43-217, limits assumed)
# T1 sequence (looked up): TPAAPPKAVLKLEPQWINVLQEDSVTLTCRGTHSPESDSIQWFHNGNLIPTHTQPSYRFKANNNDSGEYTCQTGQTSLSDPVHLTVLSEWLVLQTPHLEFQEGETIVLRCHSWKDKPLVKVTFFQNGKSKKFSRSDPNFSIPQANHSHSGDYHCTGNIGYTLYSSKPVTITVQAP
# test.protocol: method not stated at Table 3
endpoint: binding relative to wild-type Fc (fold)
Expressed in fold, but write only the number.

These solved cases illustrate the format of a correct answer.
Fc mutant 15: R292P V305I P396L (other, UniProt P01857-1 104-330, looked up, domain: Fc) DKTHTCPPCPAPELLGGPSVFLFPPKPKDTLMISRTPEVTCVVVDVSHEDPEVKFNWYVDGVEVHNAKTKPPEEQYNSTYRVVSILTVLHQDWLNGKEYKCKVSNKALPAPIEKTISKAKGQPREPQVYTLPPSRDELTKNQVSLTCLVKGFYPSDIAVEWESNGQPENNYKTTPLVLDSDGSFFLYSKLTVDKSRWQQGNVFSCSVMHEALHNHYTQKSLSLSPGK: 0.92
Fc variant P247L D270E N421K (other, UniProt P01857-1 104-330, looked up, domain: Fc) DKTHTCPPCPAPELLGGPSVFLFPPKLKDTLMISRTPEVTCVVVDVSHEEPEVKFNWYVDGVEVHNAKTKPREEQYNSTYRVVSVLTVLHQDWLNGKEYKCKVSNKALPAPIEKTISKAKGQPREPQVYTLPPSRDELTKNQVSLTCLVKGFYPSDIAVEWESNGQPENNYKTTPPVLDSDGSFFLYSKLTVDKSRWQQGKVFSCSVMHEALHNHYTQKSLSLSPGK: 0.58
Fc variant D270E G316D R416G (other, UniProt P01857-1 104-330, looked up, domain: Fc) DKTHTCPPCPAPELLGGPSVFLFPPKPKDTLMISRTPEVTCVVVDVSHEEPEVKFNWYVDGVEVHNAKTKPREEQYNSTYRVVSVLTVLHQDWLNDKEYKCKVSNKALPAPIEKTISKAKGQPREPQVYTLPPSRDELTKNQVSLTCLVKGFYPSDIAVEWESNGQPENNYKTTPPVLDSDGSFFLYSKLTVDKSGWQQGNVFSCSVMHEALHNHYTQKSLSLSPGK: 0.78
Fc mutant 16: F243L R292P Y300L P396L (other, UniProt P01857-1 104-330, looked up, domain: Fc) DKTHTCPPCPAPELLGGPSVFLLPPKPKDTLMISRTPEVTCVVVDVSHEDPEVKFNWYVDGVEVHNAKTKPPEEQYNSTLRVVSVLTVLHQDWLNGKEYKCKVSNKALPAPIEKTISKAKGQPREPQVYTLPPSRDELTKNQVSLTCLVKGFYPSDIAVEWESNGQPENNYKTTPLVLDSDGSFFLYSKLTVDKSRWQQGNVFSCSVMHEALHNHYTQKSLSLSPGK: 1.07

Shift focus to the following entry.
// query binding relative to wild-type Fc value for entry Fc mutant 17: F243L R292P V305I P396L (other, UniProt P01857-1 104-330, looked up, domain: Fc) DKTHTCPPCPAPELLGGPSVFLLPPKPKDTLMISRTPEVTCVVVDVSHEDPEVKFNWYVDGVEVHNAKTKPPEEQYNSTYRVVSILTVLHQDWLNGKEYKCKVSNKALPAPIEKTISKAKGQPREPQVYTLPPSRDELTKNQVSLTCLVKGFYPSDIAVEWESNGQPENNYKTTPLVLDSDGSFFLYSKLTVDKSRWQQGNVFSCSVMHEALHNHYTQKSLSLSPGK
0.4
